# System: human airway epithelial cells (HAECs)
# ASSAY_COMMENT: Agilent miRNA chips, miRNA expression at four stages of differentiation of HAECs
# EXPERIMENTAL_CONTEXT: stage D7; Table VI
For each record, write down the corresponding Level of intensity of expression in log2 measured with the Agilent chips, D7.
Numbers only, in log2.

hsa-miR-181a: human miRNA, SEQ ID No. 12 (AACAUUCAACGCUGUCGGUGAGU; expressed or natural sequence; listed as Homo sapiens): 8.47
hsa-miR-200b: human miRNA, SEQ ID No. 17 (UAAUACUGCCUGGUAAUGAUGA; expressed or natural sequence; listed as Homo sapiens): 11.94

Give Level of intensity of expression in log2 measured with the Agilent chips, D7 for all substances that follow.
1. hsa-miR-429: human miRNA, SEQ ID No. 45 (UAAUACUGUCUGGUAAAACCGU; expressed or natural sequence; listed as Homo sapiens)
2. hsa-miR-23b: human miRNA, SEQ ID No. 26 (AUCACAUUGCCAGGGAUUACC; expressed or natural sequence; listed as Homo sapiens)
3. hsa-miR-378: human miRNA, SEQ ID No. 43 (ACUGGACUUGGAGUCAGAAGG; expressed or natural sequence; listed as Homo sapiens)
4. hsa-miR-30b: human miRNA, SEQ ID No. 33 (UGUAAACAUCCUACACUCAGCU; expressed or natural sequence; listed as Homo sapiens)
5. hsa-miR-30c: human miRNA, SEQ ID No. 34 (UGUAAACAUCCUACACUCUCAGC; expressed or natural sequence; listed as Homo sapiens)

[9.68, 10.88, 7.61, 9.98, 9.77]

Record Level of intensity of expression in log2 measured with the Agilent chips, D7 per entry; entries follow.
1. hsa-miR-130a: human miRNA, SEQ ID No. 4 (CAGUGCAAUGUUAAAAGGGCAU; expressed or natural sequence; listed as Homo sapiens)
2. hsa-miR-26b: human miRNA, SEQ ID No. 29 (UUCAAGUAAUUCAGGAUAGGU; expressed or natural sequence; listed as Homo sapiens)
3. hsa-miR-224: human miRNA, SEQ ID No. 24 (CAAGUCACUAGUGGUUCCGUU; expressed or natural sequence; listed as Homo sapiens)
4. hsa-miR-140-3p: human miRNA, SEQ ID No. 5 (UACCACAGGGUAGAACCACGG; expressed or natural sequence; listed as Homo sapiens)

9.48
9.91
9.40
5.09

These measurements were taken from patent US9023821B2.
